Hi! I'm sharing some IC50 results obtained with ShHTL7 (Striga hermonthica, UniProt A0A0M3PNA2).
Sequence (A0A0M3PNA2 entry or part of it): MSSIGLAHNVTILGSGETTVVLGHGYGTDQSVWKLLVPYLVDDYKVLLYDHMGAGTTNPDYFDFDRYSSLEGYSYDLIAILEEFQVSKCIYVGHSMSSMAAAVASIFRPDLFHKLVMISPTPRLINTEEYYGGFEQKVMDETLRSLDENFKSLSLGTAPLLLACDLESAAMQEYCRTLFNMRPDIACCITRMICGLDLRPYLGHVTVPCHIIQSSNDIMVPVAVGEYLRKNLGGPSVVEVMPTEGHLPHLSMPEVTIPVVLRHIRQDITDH

# MOLECULE, UNIT NAME, IC50
rows = [
    ("CC1=CC(O/C=C(\\C(=O)N(C)C)c2ccccc2)OC1=O (centres unmarked)", "µM", 4.37),
    ("CC1=C[C@H](O/C=C2/C(=O)O[C@@H]3c4ccccc4C[C@H]23)OC1=O [GR24, reference compound]", "µM", 0.98),
]

Data origin, for the record: patent US12660818B2
